- Assay target: human CYP4F2 (Homo sapiens (Human), UniProt P78329)
- Sequence (P78329 5-520): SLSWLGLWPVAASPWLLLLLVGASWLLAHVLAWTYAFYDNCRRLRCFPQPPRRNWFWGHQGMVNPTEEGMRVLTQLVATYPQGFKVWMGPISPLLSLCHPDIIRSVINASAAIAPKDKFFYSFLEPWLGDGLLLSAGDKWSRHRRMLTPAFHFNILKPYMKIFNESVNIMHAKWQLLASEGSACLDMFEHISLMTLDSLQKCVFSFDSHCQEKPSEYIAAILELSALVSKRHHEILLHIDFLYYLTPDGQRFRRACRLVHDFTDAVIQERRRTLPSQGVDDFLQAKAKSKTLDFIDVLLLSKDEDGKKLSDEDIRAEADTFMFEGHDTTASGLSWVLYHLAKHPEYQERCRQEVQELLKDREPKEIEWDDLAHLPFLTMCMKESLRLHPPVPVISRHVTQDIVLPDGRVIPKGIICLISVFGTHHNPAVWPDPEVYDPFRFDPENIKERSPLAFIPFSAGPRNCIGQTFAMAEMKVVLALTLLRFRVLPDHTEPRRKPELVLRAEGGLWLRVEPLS
- Measurement notes: Inhibition test against 20-HETE producing enzyme CYP4F2 (luciferine derivative, luminescence)
- Assay type: biochemical
- Study conditions: E. coli membrane fraction expressing human CYP4F2, 2.5 μM luciferine derivative, room temperature 60 minutes
Listed below: log10(IC50) values for each entry.
Property measured: log10(IC50) (log10 of the value in nM)

- Molecule: "O=C(O)c1cccc(COc2ccc(-c3ccn[nH]3)nc2)c1 [Example 22-2]"
  log10(IC50): 3.15
- Molecule: "CC(C)(COc1cc(COc2ccc(-c3ccn[nH]3)nc2)ccn1)C(=O)O [Example 22-14]"
  log10(IC50): 2.58
- Molecule: "O=C(c1ccc(=O)[nH]c1)N1CCC[C@@H](COc2ccc(-c3ccn[nH]3)nc2)C1 [Example 41-3]"
  log10(IC50): 3.63
- Molecule: "O=C(O)CCc1ccc(CCCOc2ccc(-c3ccn[nH]3)nc2)cc1 [Example 8-7]"
  log10(IC50): 2.45
- Molecule: "O=C(O)c1cnn(CCCOc2ccc(-c3ccn[nH]3)nc2)c1 [Example 15-2]"
  log10(IC50): 4.40
- Molecule: "O=C(O)Cn1cc(CCCCOc2ccc(-c3ccn[nH]3)nc2)nn1 [Example 35-2]"
  log10(IC50): 3.76
- Molecule: "CC(=O)N1CCC(CCCCCCCOc2ccc(-c3ccn[nH]3)nc2)(C(=O)O)CC1 [Example 3-8]"
  log10(IC50): 2.40
- Molecule: "CS(=O)(=O)c1cc(O)cc(COc2ccc(-c3ccn[nH]3)nc2)c1 [Example 20-2]"
  log10(IC50): 1.84
- Molecule: "O=C(O)[C@H]1CC[C@@H](COc2ccc(-c3ccn[nH]3)nc2)CC1 [Example 1-50]"
  log10(IC50): 4.36
- Molecule: "O=C(O)C1CC1CCCOc1ccc(-c2ccn[nH]2)nc1 (stereo not drawn) [Example 1-27]"
  log10(IC50): 4.61
- Molecule: "O=C(O)c1ccc2c(c1)C(CCOc1ccc(-c3ccn[nH]3)nc1)CCC2 (stereo not drawn) [Example 5-2]"
  log10(IC50): 3.23
- Molecule: "O=C(O)C1(CCCCCCOc2ccc(-c3ccn[nH]3)nc2)CCCCC1 [Example 1-44]"
  log10(IC50): 2.71
- Molecule: "O=C(CCC12CC(C(=O)O)(C1)C2)N1CCC[C@@H](COc2ccc(-c3ccn[nH]3)nc2)C1 [Example 46-2]"
  log10(IC50): 2.67
- Molecule: "O=S(=O)(NCc1cccc(COc2ccc(-c3ccn[nH]3)nc2)c1)C(F)(F)F [Example 65-1]"
  log10(IC50): 1.80
- Molecule: "O=C(O)CCC(=O)N1CCC(COc2ccc(-c3ccn[nH]3)nc2)CC1 [Example 48-1]"
  log10(IC50): 4.04
- Molecule: "CC(C)(OCCCCOCCCCOc1ccc(-c2ccn[nH]2)nc1)C(=O)O [Example 9-2]"
  log10(IC50): 3.04
- Molecule: "O=C(O)CCc1ccccc1CCCOc1ccc(-c2ccn[nH]2)nc1 [Example 1-17]"
  log10(IC50): 3.71
- Molecule: "O=C(O)c1ncc(-c2cccc(COc3ccc(-c4ccn[nH]4)nc3)c2)cn1 [Example 22-7]"
  log10(IC50): 3.08
- Molecule: "O=C(O)CCCc1ccc(COc2ccc(-c3ccn[nH]3)nc2)cc1 [Example 30-2]"
  log10(IC50): 2.28
- Molecule: "Oc1ccccc1CCOc1ccc(-c2ccn[nH]2)nc1 [Example 13-2]"
  log10(IC50): 1.11
- Molecule: "O=C(O)Cc1ccc(CCCOc2ccc(-c3ccn[nH]3)nc2)cc1 [Example 8-8]"
  log10(IC50): 3.04
- Molecule: "OC1(c2cccc(COc3ccc(-c4ccn[nH]4)nc3)c2)CCC1 [Example 27-3]"
  log10(IC50): 2.54
- Molecule: "O=C(O)[C@H]1C[C@](O)(c2cccc(COc3ccc(-c4ccn[nH]4)nc3)c2)C1 [Example 28-1]"
  log10(IC50): 2.67
- Molecule: "O=C(O)c1cccc(CCCOc2ccc(-c3ccn[nH]3)nc2)c1 [Example 1-9]"
  log10(IC50): 2.68
- Molecule: "CS(=O)(=O)NCCCCCCOc1ccc(-c2ccn[nH]2)nc1 [Example 19-1]"
  log10(IC50): 1.34

---

- Assay target: UniProtKB Q02928
- Sequence (Q02928 5-519): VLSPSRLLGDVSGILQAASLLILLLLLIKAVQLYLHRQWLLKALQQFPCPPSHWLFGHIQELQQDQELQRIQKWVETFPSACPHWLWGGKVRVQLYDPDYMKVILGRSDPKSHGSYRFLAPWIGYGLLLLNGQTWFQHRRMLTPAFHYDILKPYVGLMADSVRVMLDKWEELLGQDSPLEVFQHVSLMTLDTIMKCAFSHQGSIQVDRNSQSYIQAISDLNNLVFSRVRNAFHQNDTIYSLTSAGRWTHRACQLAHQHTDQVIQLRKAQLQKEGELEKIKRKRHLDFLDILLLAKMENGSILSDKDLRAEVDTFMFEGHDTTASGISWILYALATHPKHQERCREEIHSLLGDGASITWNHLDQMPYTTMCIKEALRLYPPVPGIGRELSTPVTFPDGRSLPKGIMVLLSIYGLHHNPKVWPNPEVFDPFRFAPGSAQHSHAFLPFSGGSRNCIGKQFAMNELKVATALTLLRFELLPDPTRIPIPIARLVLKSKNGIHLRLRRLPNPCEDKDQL
- Measurement notes: Inhibition test against 20-HETE producing enzyme CYP4A11 (luciferine derivative, luminescence)
- Format: biochemical
- Study conditions: E. coli membrane fraction expressing human CYP4A11, 60 μM luciferine derivative, room temperature 60 minutes
pIC50: −log10 of the molar value.
Output 1 for pIC50 not less than 7; output -1 otherwise.

- Compound: "O=C(O)Cc1ccc(COc2ccc(-c3ccn[nH]3)nc2)cc1 [Example 21-1]"
  Discrete label: 1
- Compound: "O=C(O)[C@H]1CC[C@H](c2cccc(COc3ccc(-c4ccn[nH]4)nc3)c2)CC1 [Example 8-2]"
  Discrete label: 1
- Compound: "CC(C)(CCCCCCCCOc1ccc(-c2ccn[nH]2)nc1)C(=O)O [Example 1-63]"
  Discrete label: 1
- Compound: "CC(C)(Oc1cc(COc2ccc(-c3ccn[nH]3)nc2)ccn1)C(=O)O [Example 22-13]"
  Discrete label: -1
- Compound: "O=C(O)CC[C@H]1CCC[C@@H](COc2ccc(-c3ccn[nH]3)nc2)C1 (racemic) [Example 2-6]"
  Discrete label: 1
- Compound: "O=C(c1cccc(=O)[nH]1)N1CCC[C@@H](COc2ccc(-c3ccn[nH]3)nc2)C1 [Example 41-4]"
  Discrete label: -1
- Compound: "O=C(O)CCCc1ccc(CCCOc2ccc(-c3ccn[nH]3)nc2)cc1 [Example 30-5]"
  Discrete label: -1
- Compound: "CC(C)(CCCCCCCOc1ccc(-c2ccn[nH]2)nc1)C(=O)O [Example 1-62]"
  Discrete label: 1
- Compound: "O=C(O)c1ncc(CCCCOc2ccc(-c3ccn[nH]3)nc2)cn1 [Example 29-3]"
  Discrete label: -1
- Compound: "O=C(O)CCCc1cccc(CCOc2ccc(-c3ccn[nH]3)nc2)c1 [Example 4-1]"
  Discrete label: 1
- Compound: "CS(=O)(=O)c1cc(COc2ccc(-c3ccn[nH]3)nc2)ccc1O [Example 20-1]"
  Discrete label: -1
- Compound: "CC(C)(CCCCCCOc1ccc(-c2ccn[nH]2)nc1)C(=O)O [Example 1-61]"
  Discrete label: 1
- Compound: "O=C(O)c1cccc(CCCCOc2ccc(-c3ccn[nH]3)nc2)n1 [Example 29-5]"
  Discrete label: 1
- Compound: "O=C(O)C1CCCC(COc2ccc(-c3ccn[nH]3)nc2)C1 (stereo not shown) [Example 1-54]"
  Discrete label: 1
- Compound: "Cc1ccc(COc2ccc(-c3ccn[nH]3)nc2)cc1O [Example 12-1]"
  Discrete label: -1
- Compound: "O=C(CCC12CC(C(=O)O)(C1)C2)N1CCC[C@@H](COc2ccc(-c3ccn[nH]3)nc2)C1 [Example 46-2]"
  Discrete label: -1
- Compound: "O=C(O)c1ccnc(CCCOc2ccc(-c3ccn[nH]3)nc2)c1 [Example 29-2]"
  Discrete label: -1
- Compound: "CC(=O)N1CCC(CCCCCCOc2ccc(-c3ccn[nH]3)nc2)(C(=O)O)CC1 [Example 3-5]"
  Discrete label: -1
- Compound: "OCc1cccc(COc2ccc(-c3ccn[nH]3)nc2)c1 [Example 23-5]"
  Discrete label: -1
- Compound: "O=C(O)[C@H]1CC[C@@H](c2cccc(COc3ccc(-c4ccn[nH]4)nc3)c2)CC1 [Example 8-1]"
  Discrete label: 1
- Compound: "CC(C)(C(=O)O)c1cccc(COc2ccc(-c3ccn[nH]3)nc2)c1 [Example 24-2]"
  Discrete label: 1
- Compound: "CC(C)(CC(=O)N1CCC(CCCOc2ccc(-c3ccn[nH]3)nc2)CC1)C(=O)O [Example 1-31]"
  Discrete label: -1
- Compound: "O=C(O)C12CCC(C(=O)N3CCC[C@@H](COc4ccc(-c5ccn[nH]5)nc4)C3)(CC1)CC2 [Example 46-4]"
  Discrete label: -1

---

- Assay target: human CYP4F2 (Homo sapiens (Human))
- Measurement notes: Inhibition test against 20-HETE producing enzyme CYP4F2 (luciferine derivative, luminescence)
- Format: biochemical
- Study conditions: E. coli membrane fraction expressing human CYP4F2, 2.5 μM luciferine derivative, room temperature 60 minutes
pIC50: −log10 of the molar value.
Property measured: pIC50

- Molecule: "O=C(O)Cc1ccccc1COc1ccc(-c2ccn[nH]2)nc1"
  Property measured: "pIC50"
  Value prefix: "<"
  Value measured: 4.30
- Molecule: "O=C(O)c1ccnc(CCCOc2ccc(-c3ccn[nH]3)nc2)c1"
  Property measured: "pIC50"
  Value prefix: "="
  Value measured: 5.57
- Molecule: "O=C(O)c1ccc2c(c1)CC(COc1ccc(-c3ccn[nH]3)nc1)CC2 (stereo not shown)"
  Property measured: "pIC50"
  Value prefix: "="
  Value measured: 7.48
- Molecule: "CS(=O)(=O)NC(=O)CCCCCOc1ccc(-c2ccn[nH]2)nc1"
  Property measured: "pIC50"
  Value prefix: "="
  Value measured: 4.68
- Molecule: "Oc1cc(F)cc(COc2ccc(-c3ccn[nH]3)nc2)c1"
  Property measured: "pIC50"
  Value prefix: "="
  Value measured: 7.60
- Molecule: "O=C(O)C12CCC(COc3ccc(-c4ccns4)nc3)(CC1)CC2"
  Property measured: "pIC50"
  Value prefix: "="
  Value measured: 4.66
- Molecule: "CS(=O)(=O)NCC12CC(COc3ccc(-c4ccn[nH]4)nc3)(C1)C2"
  Property measured: "pIC50"
  Value prefix: "="
  Value measured: 6.92
- Molecule: "O=C(O)C1(C(=O)NCCCCCCOc2ccc(-c3ccn[nH]3)nc2)CCCC1"
  Property measured: "pIC50"
  Value prefix: "="
  Value measured: 6.37
- Molecule: "O=C(O)C12CC(COc3ccc(-c4ccn[nH]4)nc3)(C1)C2"
  Property measured: "pIC50"
  Value prefix: "="
  Value measured: 4.66
- Molecule: "O=C(O)C12CCC(COc3ccc(-c4[nH]ncc4Cl)nc3)(CC1)CC2"
  Property measured: "pIC50"
  Value prefix: "="
  Value measured: 5.04
- Molecule: "O=C(O)[C@H]1C[C@](O)(c2cc(COc3ccc(-c4ccn[nH]4)nc3)ccc2F)C1"
  Property measured: "pIC50"
  Value prefix: "="
  Value measured: 6.00
- Molecule: "O=C(O)CCCCCOc1ccc(-c2ccn[nH]2)nc1"
  Property measured: "pIC50"
  Value prefix: "="
  Value measured: 4.85
- Molecule: "CC(Oc1ccc(-c2ccn[nH]2)nc1)c1ccc(C(=O)O)cc1 (stereo not shown)"
  Property measured: "pIC50"
  Value prefix: "="
  Value measured: 4.38
- Molecule: "O=C(O)C1(CCCCCCOc2ccc(-c3ccn[nH]3)nc2)CCCC1"
  Property measured: "pIC50"
  Value prefix: "="
  Value measured: 6.43
- Molecule: "O=C(O)c1ccccc1CCOc1ccc(-c2ccn[nH]2)nc1"
  Property measured: "pIC50"
  Value prefix: "="
  Value measured: 4.96
- Molecule: "O=C(O)CCCCCCCOc1ccc(-c2ccn[nH]2)nc1"
  Property measured: "pIC50"
  Value prefix: "="
  Value measured: 5.70

These entries and their values trace back to patent US11365192B2.
